Data credit: BigSolDB 2.1

conditions: in ethyl acetate, 302.85 K

molecular-string	solubility (mole fraction)
O=C1CCCCCN1	0.304

---

conditions: in acetonitrile, 278.85 K
assay-endpoint: solubility (mole fraction)

molecular-string	assay-endpoint	result-value
O=C1CCCCCN1	solubility (mole fraction)	0.149

---

details: in acetonitrile, 318.65 K

molecular-string	solubility (mole fraction)
O=C1CCCCCN1	0.637

---

details: in acetonitrile, 288.25 K
assay-endpoint: solubility (mole fraction)

molecular-string	result-value
O=C1CCCCCN1	0.236

---

conditions: in acetonitrile, 313.15 K

molecular-string	solubility (mole fraction)
O=C1CCCCCN1	0.558

---

details: in ethyl acetate, 317.15 K

molecular-string	solubility (mole fraction)
O=C1CCCCCN1	0.557

---

settings: in benzene, 288.55 K

molecular-string	solubility (mole fraction)
O=C1CCCCCN1	0.27

---

settings: in cyclohexane, 288.25 K

molecular-string	solubility (mole fraction)
O=C1CCCCCN1	0.00616

---

conditions: in ethyl acetate, 298.05 K

molecular-string	solubility (mole fraction)
O=C1CCCCCN1	0.243

---

settings: in acetonitrile, 323.15 K
assay-endpoint: solubility (mole fraction)

molecular-string	assay-endpoint	result-value
O=C1CCCCCN1	solubility (mole fraction)	0.725

---

conditions: in benzene, 321.75 K

molecular-string	solubility (mole fraction)
O=C1CCCCCN1	0.701

---

settings: in cyclohexane, 292.85 K
assay-endpoint: solubility (mole fraction)

molecular-string	result-value
O=C1CCCCCN1	0.00897

---

conditions: in benzene, 284.15 K
assay-endpoint: solubility (mole fraction)

molecular-string	assay-endpoint	result-value
O=C1CCCCCN1	solubility (mole fraction)	0.232

---

conditions: in benzene, 317.45 K
assay-endpoint: solubility (mole fraction)

molecular-string	result-value
O=C1CCCCCN1	0.631

---

conditions: in acetonitrile, 303.65 K

molecular-string	solubility (mole fraction)
O=C1CCCCCN1	0.427

---

details: in benzene, 279.25 K

molecular-string	solubility (mole fraction)
O=C1CCCCCN1	0.2

---

details: in benzene, 313.25 K
assay-endpoint: solubility (mole fraction)

molecular-string	assay-endpoint	result-value
O=C1CCCCCN1	solubility (mole fraction)	0.566

---

conditions: in benzene, 297.85 K

molecular-string	solubility (mole fraction)
O=C1CCCCCN1	0.361

---

settings: in benzene, 293.15 K

molecular-string	solubility (mole fraction)
O=C1CCCCCN1	0.31

---

settings: in ethyl acetate, 288.35 K

molecular-string	solubility (mole fraction)
O=C1CCCCCN1	0.156

---

settings: in benzene, 303.05 K

molecular-string	solubility (mole fraction)
O=C1CCCCCN1	0.423

---

settings: in ethyl acetate, 292.95 K
assay-endpoint: solubility (mole fraction)

molecular-string	result-value
O=C1CCCCCN1	0.192

---

settings: in acetonitrile, 298.45 K

molecular-string	solubility (mole fraction)
O=C1CCCCCN1	0.359

---

details: in ethyl acetate, 278.85 K

molecular-string	solubility (mole fraction)
O=C1CCCCCN1	0.103

---

details: in ethyl acetate, 283.65 K
assay-endpoint: solubility (mole fraction)

molecular-string	result-value
O=C1CCCCCN1	0.127

---

conditions: in ethyl acetate, 307.15 K
assay-endpoint: solubility (mole fraction)

molecular-string	result-value
O=C1CCCCCN1	0.364
